system: colon 38 adenocarcinoma; assay: Activity against advanced colon carcinoma C38 tumor; assay type: in vivo, CDF1 mice; settings: dose 0.60 mg/kg iv days 1, 5, 9
*1 amine or outer side, *2 acyl side, *3 side chain or, on linkers, in order; H or OH if unused. Where a SMILES comes first, the peptide text is derived from it. Bridges are numbered along the chain shown (N, C = ends). Roman numbers before positions name the chains, in order. [ ]: non-standard residue; d: D form. Actinocin(9to1) = Cc1c2oc3c(C)ccc(C(=O)[*:1])c3nc-2c(C(=O)[*:2])c(N)c1=O; NMeV = CN[C@H](C(=O)O)C(C)C; Sar = CNCC(=O)O

compound: Cc1c2oc3c(C)c4oc(CC(=O)NCCCCN)nc4c(C(=O)N[C@@H]4C(=O)N[C@H](C(C)C)C(=O)N5CCC[C@H]5C(=O)N(C)CC(=O)N(C)[C@@H](C(C)C)C(=O)O[C@@H]4C)c3nc-2c(C(=O)N[C@@H]2C(=O)N[C@H](C(C)C)C(=O)N3CCC[C@H]3C(=O)N(C)CC(=O)N(C)[C@@H](C(C)C)C(=O)O[C@@H]2C)c(N)c1=O
% T/C (median survival time) [%]: 250
--
compound: Cc1c2oc3c(C)c(O)c(N)c(C(=O)N[C@@H]4C(=O)N[C@H](C(C)C)C(=O)N5CCC[C@H]5C(=O)N(C)CC(=O)N(C)[C@@H](C(C)C)C(=O)O[C@@H]4C)c3nc-2c(C(=O)N[C@@H]2C(=O)N[C@H](C(C)C)C(=O)N3CCC[C@H]3C(=O)N(C)CC(=O)N(C)[C@@H](C(C)C)C(=O)O[C@@H]2C)c(N)c1=O
% T/C (median survival time) [%]: 278
--
compound: Cc1c2oc3c(C)c4oc(-c5ccccc5)nc4c(C(=O)N[C@@H]4C(=O)N[C@H](C(C)C)C(=O)N5CCC[C@H]5C(=O)N(C)CC(=O)N(C)[C@@H](C(C)C)C(=O)O[C@@H]4C)c3nc-2c(C(=O)N[C@@H]2C(=O)N[C@H](C(C)C)C(=O)N3CCC[C@H]3C(=O)N(C)CC(=O)N(C)[C@@H](C(C)C)C(=O)O[C@@H]2C)c(N)c1=O
% T/C (median survival time) [%]: 170
--
compound: Cc1c2oc3c(C)ccc(C(=O)N[C@@H]4C(=O)N[C@H](C(C)C)C(=O)N5CCC[C@H]5C(=O)N(C)CC(=O)N(C)[C@@H](C(C)C)C(=O)O[C@@H]4C)c3nc-2c(C(=O)N[C@@H]2C(=O)N[C@H](C(C)C)C(=O)N3CCC[C@H]3C(=O)N(C)CC(=O)N(C)[C@@H](C(C)C)C(=O)O[C@@H]2C)c(N)c1=O [AMD (1), Actinomycin D] (I: T[dV]P[Sar][NMeV] / II: T[dV]P[Sar][NMeV]; ester I:1-I:C, II:1-II:C; linker I:N-II:N via Actinocin(9to1))
% T/C (median survival time) [%]: 103
